- Test system: Tel-cKit/T670I-BaF3
- experimentalDetails: Proliferation of Tel-cKit/T670I-BaF3 cells, CCK8 cell viability assay
- Format: cell-based
- experimentalParameters: Mus musculus, 72 hours, stably expressing cKIT/T670I
metricName: log10 GI50 (log10 of the value in µM)

- CC(=O)Nc1cc(Oc2ccc(NC(=O)Cc3cccc4ccccc34)cc2)ncn1: 0.51
- CC(=O)Nc1cc(Oc2ccc(CC(=O)Nc3ccc(C)cc3C(F)(F)F)cc2)ncn1: 0.92
- COc1ccc(CNc2cc(Oc3ccc(NC(=O)Nc4ccc(CN5CCNCC5)c(C(F)(F)F)c4)cc3)ncn2)cc1: 0.45
- Cc1ccc(NC(=O)Nc2ccc(Oc3cc(NC4CCNCC4)ncn3)cc2)cc1C(F)(F)F: 0.98
- CC(=O)Nc1cc(Oc2ccc(CC(=O)Nc3cccc(C(F)(F)F)c3)cc2)ncn1: -1.09

* * *

As shown below, each of these compounds has a reported GI50 value.
- Tested on: Tel-RET-BaF3
- experimentalDetails: Proliferation of Tel-RET-BaF3 cells, CCK8 cell viability assay
- Assay type: cell-based
- experimentalParameters: Mus musculus, 72 hours, stably expressing RET kinase
metricName: GI50 (µM)

* Cc1ccc(NC(=O)Nc2ccc(Oc3cc(NC4CCN(C(=O)OC(C)(C)C)CC4)ncn3)cc2)cc1C(F)(F)F [Example 99] | 4.6
* Cc1ccc(NC(=O)Nc2ccc(Oc3cc(NCCN4CCCC4)ncn3)cc2)cc1C(F)(F)F [Example 122] | 4.3
* Cc1ccc(NC(=O)N[C@H]2CC[C@H](Oc3cc(NCCN)ncn3)CC2)cc1C(F)(F)F [Example 46] | 4.03
* CC(=O)Nc1cc(Oc2ccc(NC(=O)Cc3cccc(Oc4ccccc4)c3)cc2)ncn1 [Example 12] | 0.672
* Cc1ccc(NC(=O)Nc2ccc(Oc3cc(N4CCOC[C@H]4C)ncn3)cc2)cc1C(F)(F)F [Example 114] | 3.83
* CC(=O)Nc1cc(Oc2ccc(NC(=O)Cc3ccccc3Br)cc2)ncn1 [Example 17] | 0.229
* CCN1CCN(Cc2ccc(NC(=O)Nc3ccc(Oc4cc(NCCN)ncn4)cc3)cc2C(F)(F)F)CC1 [Example 109] | 0.46
* Cc1ccc(NC(=O)Nc2ccc(Oc3cc(N4CCN(C(=O)OC(C)(C)C)C[C@H]4CO)ncn3)cc2)cc1C(F)(F)F [Example 110] | 6.21
* COCCNc1cc(OC2CCC(NC(=O)Nc3ccc(C)c(C(F)(F)F)c3)CC2)ncn1 (stereo not drawn) [Example 41] | 3.18

* * *

- System: FLT3-ITD-BaF3
- experimentalDetails: Proliferation of FLT3-ITD-BaF3 cells, CCK8 cell viability assay
- Type: cell-based
- experimentalParameters: Mus musculus, 72 hours, stably expressing FLT3/ITD
metricName: GI50 (nM)

- CC(C)C(=O)Nc1cc(Oc2ccc(NC(=O)Cc3cccc(C(F)(F)F)c3)cc2)ncn1 [Example 50]: 206
- Cc1ccc(NC(=O)Nc2ccc(Oc3cc(NC4CCNCC4)ncn3)cc2)cc1C(F)(F)F [Example 103]: 190
- Cc1ccc(NC(=O)Nc2ccc(Oc3cc(N4CCNCC4C)ncn3)cc2)cc1C(F)(F)F (centres unmarked) [Example 104]: 290
- CC(=O)Nc1cc(Oc2ccc(NC(=O)Cc3c(Cl)cccc3Cl)cc2)ncn1 [Example 6]: 63
- Cc1ccc(NC(=O)Nc2ccc(Oc3cc(NC4CCN(C(=O)OC(C)(C)C)CC4)ncn3)cc2)cc1C(F)(F)F [Example 99]: 17
- CC(=O)Nc1cc(Oc2ccc(NC(=O)C(C)c3ccc(C)cc3)cc2)ncn1 (centres unmarked) [Example 170]: 1220
- CCC(=O)NCCNc1cc(Nc2ccc(CC(=O)Nc3ccc(C)c(C(F)(F)F)c3)cc2)ncn1 [Example 139]: 432
- CC(=O)Nc1cc(Oc2ccc(NC(=O)Cc3ccc(C(C)(C)C)cc3)cc2)ncn1 [Example 65]: 24
- CC(=O)Nc1cc(Oc2ccc(NC(=O)Cc3cc(Cl)ccc3C(F)(F)F)cc2)ncn1 [Example 2]: 158
- CC(=O)Nc1cc(Oc2ccc(NC(=O)Cc3ccccc3Br)cc2)ncn1 [Example 17]: 129
- COc1cc(CC(=O)Nc2ccc(Oc3cc(NC(C)=O)ncn3)cc2)cc(OC)c1OC [Example 62]: 50
- CC(=O)Nc1cc(Oc2ccc(CC(=O)N(C)c3ccc(Br)cc3)cc2)ncn1 [Example 39]: 180
- COc1ccc(CC(=O)Nc2ccc(Oc3cc(NC(C)=O)ncn3)cc2)cc1OC [Example 61]: 63
- CC(=O)Nc1cc(Oc2ccc(NC(=O)Cc3cc(F)cc(F)c3)cc2)ncn1 [Example 173]: 92
- Cc1ccc(NC(=O)Cc2ccc(Oc3cc(NCCN)ncn3)cc2)cc1C(F)(F)F [Example 137]: 12
- Cc1ccc(NC(=O)Nc2ccc(Oc3cc(N4CCN(C(=O)OC(C)(C)C)C[C@H]4C)ncn3)cc2)cc1C(F)(F)F [Example 100]: 30
- CC(C)C(=O)Nc1cc(Oc2ccc(NC(=O)Cc3ccccc3C(F)(F)F)cc2)ncn1 [Example 49]: 1970

* * *

# log10(GI50) annotations
- System: Tel-RET-BaF3
- experimentalDetails: Proliferation of Tel-RET-BaF3 cells, CCK8 cell viability assay
- Format: cell-based
- experimentalParameters: Mus musculus, 72 hours, stably expressing RET kinase
metricName: log10(GI50) (log10 of the value in µM)

- Cc1ccc(NC(=O)N[C@H]2CC[C@H](Oc3cc(NCCO)ncn3)CC2)cc1C(F)(F)F [Example 42]: 0.56
- Cc1ccc(NC(=O)NC2CCC(Oc3cc(NCCNC(=O)OC(C)(C)C)ncn3)CC2)cc1C(F)(F)F (centres unmarked) [Example 124]: 0.28
- CCCCC(=O)Nc1cc(Oc2ccc(NC(=O)Cc3ccccc3C(F)(F)F)cc2)ncn1 [Example 55]: 0.90
- CN1CCN(Cc2ccc(NC(=O)Nc3ccc(Oc4cc(NCCN)ncn4)cc3)cc2C(F)(F)F)CC1 [Example 108]: 0.59
- Cc1ccc(NC(=O)NC2CCC(Oc3cc(NCCO)ncn3)CC2)cc1C(F)(F)F (centres unmarked) [Example 40]: 0.62
- COCCNc1cc(O[C@H]2CC[C@H](NC(=O)Nc3ccc(C)c(C(F)(F)F)c3)CC2)ncn1 [Example 43]: 0.53
- Cc1ccc(NC(=O)Nc2ccc(Oc3cc(N4CCNC[C@H]4C)ncn3)cc2)cc1C(F)(F)F [Example 105]: 0.44
- CNC(=O)c1cc(Oc2ccc(NC(=O)Nc3ccc(Cl)c(C(F)(F)F)c3)cc2)ccn1 [Sorafenib, reference compound]: -0.44
- Cc1ccc(NC(=O)Nc2ccc(Oc3cc(N4CCN(C(=O)CC(C)(C)C)C[C@H]4C)ncn3)cc2)cc1C(F)(F)F [Example 115]: 0.60
- Cc1ccc(NC(=O)Nc2ccc(Oc3cc(N4CCNC[C@@H]4C)ncn3)cc2)cc1C(F)(F)F [Example 107]: 0.30
- Cc1ccc(NC(=O)Nc2ccc(Oc3cc(N4CCN(C(=O)OC(C)(C)C)C[C@H]4C)ncn3)cc2)cc1C(F)(F)F [Example 100]: 0.76
- Cc1ccc(NC(=O)Nc2ccc(Oc3cc(N[C@@H](C)C(=O)O)ncn3)cc2)cc1C(F)(F)F [Example 126]: 0.80
- Cc1ccc(NC(=O)Nc2ccc(Oc3cc(N4CCNCC4C)ncn3)cc2)cc1C(F)(F)F (centres unmarked) [Example 104]: 0.56
- CC(=O)Nc1cc(Oc2ccc(NC(=O)Cc3cccc(F)c3F)cc2)ncn1 [Example 16]: -0.61
- COc1ccc(CNc2cc(Oc3ccc(NC(=O)Nc4ccc(CN5CCNCC5)c(C(F)(F)F)c4)cc3)ncn2)cc1 [Example 180]: -0.48

* * *

- Tested on: Tel-RET-BaF3
- experimentalDetails: Proliferation of Tel-RET-BaF3 cells, CCK8 cell viability assay
- Format: cell-based
- experimentalParameters: Mus musculus, 72 hours, stably expressing RET kinase
metricName: GI50

- CC(C)C(=O)Nc1cc(Oc2ccc(NC(=O)Cc3ccccc3C(F)(F)F)cc2)ncn1: > 10 µM
- Cc1ccc(NC(=O)Nc2ccc(Oc3cc(N[C@H](C)CNC(=O)OC(C)(C)C)ncn3)cc2)cc1C(F)(F)F: 3.82 µM
- Cc1ccc(NC(=O)NC2CCC(Oc3cc(NCCN)ncn3)CC2)cc1C(F)(F)F (stereo not shown): 3.87 µM
- Cc1ccc(NC(=O)Nc2ccc(Oc3cc(NC4CCNCC4)ncn3)cc2)cc1C(F)(F)F: > 10 µM

* * *

Readings of GI50 for the listed compounds
- Test system: BaF3
- experimentalDetails: Proliferation of BaF3 cells, CCK8 cell viability assay
- Format: cell-based
- experimentalParameters: Mus musculus, 72 hours
metricName: GI50

* Cc1ccc(NC(=O)N[C@H]2CC[C@H](Oc3cc(NCCN)ncn3)CC2)cc1C(F)(F)F | 7.88 µM
* COCCNc1cc(OC2CCC(NC(=O)Nc3ccc(C)c(C(F)(F)F)c3)CC2)ncn1 (stereo not shown) | 7.8 µM
* Cc1ccc(NC(=O)Cc2ccc(Oc3cc(NCCN)ncn3)cc2)cc1C(F)(F)F | > 10 µM
* Cc1ccc(NC(=O)Nc2ccc(Oc3cc(NC4CCN(C(=O)OC(C)(C)C)CC4)ncn3)cc2)cc1C(F)(F)F | > 10 µM
* CC(C)C(=O)Nc1cc(Oc2ccc(NC(=O)Cc3cccc(C(F)(F)F)c3)cc2)ncn1 | > 10 µM
* CNC(=O)c1cc(Oc2ccc(NC(=O)Nc3ccc(Cl)c(C(F)(F)F)c3)cc2)ccn1 [Sorafenib, reference compound] | 6.99 µM
* CC(=O)Nc1cc(Oc2ccc(NC(=O)Cc3cc(F)cc(F)c3)cc2)ncn1 | > 10 µM
* COCCNc1cc(Oc2ccc(NC(=O)Nc3ccc(CN4CCN(C)CC4)cc3)cc2)ncn1 | > 10 µM
* CC(=O)Nc1cc(Oc2ccc(NC(=O)Cc3ccc(C)c(C)c3)cc2)ncn1 | > 10 µM
* CC(=O)Nc1cc(Oc2ccc(NC(=O)Cc3ccc(F)c(F)c3)cc2)ncn1 | > 10 µM
* CC(=O)Nc1cc(Oc2ccc(NC(=O)Cc3c(Cl)cccc3Cl)cc2)ncn1 | > 10 µM
* CC(=O)Nc1cc(Nc2ccc(NC(=O)Cc3ccccc3C(F)(F)F)cc2)ncn1 | > 10 µM
* Cc1ccc(NC(=O)Cc2ccc(Nc3cc(NCCN)ncn3)cc2)cc1C(F)(F)F | > 10 µM
* COCCNc1cc(O[C@H]2CC[C@H](NC(=O)Nc3ccc(C)c(C(F)(F)F)c3)CC2)ncn1 | > 10 µM
* CC(=O)Nc1cc(Oc2ccc(NC(=O)Cc3ccc(C(F)(F)F)cc3C(F)(F)F)cc2)ncn1 | > 10 µM
* CC(=O)Nc1cc(Oc2ccc(CC(=O)Nc3ccccc3)cc2)ncn1 | > 10 µM
